Cited source for all entries: the supplement of paper PMC9233669

test system: biotinyl-Phe-oxazolone; experiment: self-aminoacylation, catalytic enhancement (BFO) (fold over background); higher = more active; k-Seq, kA / k0A0; sequences stand for … in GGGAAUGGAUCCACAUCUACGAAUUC…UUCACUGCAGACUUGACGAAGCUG
Fewer inactive variants are shown than the library holds.
Classes (self-aminoacylation): lower (below 3), middle (3 to below 30), upper (30 or more)

sequence record: CCACCCUUCAAGCAAUAGGUC [Fam1B.1 aminoacylation ribozyme variant]
class assignment: lower
--
sequence record: AUUAACCCGGUCAUCGAGUGA [Fam2.1 aminoacylation ribozyme variant]
class assignment: upper
--
sequence record: AUUACCCUGGUAACCGAGUGA [Fam2.1 aminoacylation ribozyme variant]
class assignment: upper
--
sequence record: CUACUUCAGACAAUCGGGCUG [Fam1A.1 aminoacylation ribozyme variant]
class assignment: middle
--
sequence record: AAGUUUGCUAAGAGUAGCAAG [Fam3.1 aminoacylation ribozyme variant]
class assignment: lower
--
sequence record: AUUCACCUAGGUCAGCGGGGG [Fam2.2 aminoacylation ribozyme variant]
class assignment: middle
--
sequence record: GUCCUUCAAACAAUCGGUCUG [Fam1A.1 aminoacylation ribozyme variant]
class assignment: middle
--
sequence record: AUUGACCUAGGUGAUCGGGUG [Fam2.2 aminoacylation ribozyme variant]
class assignment: middle

----------
This section presents sequences with their documented self-aminoacylation values.
tested on: biotinyl-Met-oxazolone; experiment: self-aminoacylation, catalytic enhancement (BMO) (fold over background); higher = more active; k-Seq, kA / k0A0; sequences stand for … in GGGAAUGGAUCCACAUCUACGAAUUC…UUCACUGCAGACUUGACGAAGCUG
Fewer inactive variants are shown than the library holds.
reported property: self-aminoacylation

sequence record: AUUACCCUGGUCAUAGAGUGG [Fam2.1 aminoacylation ribozyme variant]
reported property: self-aminoacylation
number: 2.18
--
sequence record: AUUACGCUGGUCAUCGAGUGA [Fam2.1 aminoacylation ribozyme variant]
reported property: self-aminoacylation
number: 4.57
--
sequence record: AUCCACGUAGGUCAUCGGGUG [Fam2.2 aminoacylation ribozyme variant]
reported property: self-aminoacylation
number: 4.61
--
sequence record: CCAUACAUCAAGCAAUCGGUC [Fam1B.1 aminoacylation ribozyme variant]
reported property: self-aminoacylation
number: 0.792
--
sequence record: CCACCCUUCAAGCAAUCGUUC [Fam1B.1 aminoacylation ribozyme variant]
reported property: self-aminoacylation
number: 0.584

----------
Attribute: self-aminoacylation
tested on: biotinyl-Phe-oxazolone; experiment: self-aminoacylation, catalytic enhancement (BFO) (fold over background); higher = more active; k-Seq, kA / k0A0; sequences stand for … in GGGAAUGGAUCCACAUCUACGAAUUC…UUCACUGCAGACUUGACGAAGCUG
Variants at the floor of the assay were thinned out.

sequence record: CUACUUCAAACAAUAGGUCAG [Fam1A.1 aminoacylation ribozyme variant]
system tested: biotinyl-Phe-oxazolone
self-aminoacylation: 1.19
--
sequence record: CUACUUCAAACAAUCGAACUG [Fam1A.1 aminoacylation ribozyme variant]
system tested: biotinyl-Phe-oxazolone
self-aminoacylation: 0.805
--
sequence record: AUUAACCUAGAUCAUCGGGUG [Fam2.2 aminoacylation ribozyme variant]
system tested: biotinyl-Phe-oxazolone
self-aminoacylation: 14.9
--
sequence record: AAGUUUGCUAAUAUUCGCAAA [Fam3.1 aminoacylation ribozyme variant]
system tested: biotinyl-Phe-oxazolone
self-aminoacylation: 0.994
--
sequence record: AUAACCCUGGUCAUCGAGUCA [Fam2.1 aminoacylation ribozyme variant]
system tested: biotinyl-Phe-oxazolone
self-aminoacylation: 0.721
--
sequence record: AUUACCCUGGUCACCGGGUGA [Fam2.1 aminoacylation ribozyme variant]
system tested: biotinyl-Phe-oxazolone
self-aminoacylation: 87.4
--
sequence record: AUUCGACUAGGUCAUCGGGUG [Fam2.2 aminoacylation ribozyme variant]
system tested: biotinyl-Phe-oxazolone
self-aminoacylation: 47.3
--
sequence record: CUUACCCUGUUCAUCGAGUGA [Fam2.1 aminoacylation ribozyme variant]
system tested: biotinyl-Phe-oxazolone
self-aminoacylation: 7.83
--
sequence record: CUACUUCAAGCCAUCGGUCUG [Fam1A.1 aminoacylation ribozyme variant]
system tested: biotinyl-Phe-oxazolone
self-aminoacylation: 0.772
